From: paper PMC3218832

# system: C-Rel subunit;p50 subunit (Homo sapiens;Homo sapiens, UniProt Q04864;P19838 1-285;7-356)
# Sequence (Q04864 1-285, chain 1 of 2): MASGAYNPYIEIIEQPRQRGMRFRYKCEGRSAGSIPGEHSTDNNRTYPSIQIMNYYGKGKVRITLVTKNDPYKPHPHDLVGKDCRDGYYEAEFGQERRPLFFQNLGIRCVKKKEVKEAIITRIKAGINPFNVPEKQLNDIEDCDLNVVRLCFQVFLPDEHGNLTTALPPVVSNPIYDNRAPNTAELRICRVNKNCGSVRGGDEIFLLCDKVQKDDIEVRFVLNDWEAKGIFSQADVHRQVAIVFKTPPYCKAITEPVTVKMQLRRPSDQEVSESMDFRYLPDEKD
# Sequence (P19838 7-356, chain 2 of 2): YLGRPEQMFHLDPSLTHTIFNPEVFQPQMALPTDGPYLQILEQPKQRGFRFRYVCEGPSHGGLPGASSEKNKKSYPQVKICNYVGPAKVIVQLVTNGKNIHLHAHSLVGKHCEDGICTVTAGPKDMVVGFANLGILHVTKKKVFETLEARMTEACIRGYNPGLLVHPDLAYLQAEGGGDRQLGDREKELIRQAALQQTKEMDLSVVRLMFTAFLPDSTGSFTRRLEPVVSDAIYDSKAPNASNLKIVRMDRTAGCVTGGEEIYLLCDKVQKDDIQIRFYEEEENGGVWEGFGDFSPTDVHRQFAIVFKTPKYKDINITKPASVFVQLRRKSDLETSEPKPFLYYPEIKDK
# testName: protein binding microarray; high values mean tight binding
# conditionNotes: dsDNA, one strand shown
I'd appreciate it if you could supply binding signal values for the items below.
Give the number; z-score is assumed, so skip it.

Query: Bench note: what binding signal did GAGTTCTTCCT show?
Response: -0.764

Query: Next sequence up: CGAATGTCCCC
Response: 1.01

Query: Next sequence up: AAATACGCCCT
Response: -0.684

Query: Next sequence up: GGAGGATCCCC
Response: 1.15

Query: Next sequence up: CAATGTGTCCT
Response: -0.887

Query: Next sequence up: GAGGAATCCCT
Response: 0.573

Query: Next sequence up: GAGTAATTCCT
Response: -0.18

Query: Next sequence up: GGAGTGACCCC
Response: -0.367

Query: Next sequence up: GAGATTGCCCC
Response: 1.1

Query: Next sequence up: AAATTACTCCC
Response: 0.213

Query: Next sequence up: CGGAAATCCCT
Response: 1.21

Query: Next sequence up: AAGGGTGCCCT
Response: -1.1

Query: Next sequence up: AAAGTTCTCCT
Response: -0.841

Query: Next sequence up: GAGAGTTCCCC
Response: 1.21

Query: Next sequence up: CGGTATCCCCC
Response: 1.23

Query: Next sequence up: GAAATGACCCT
Response: -0.632

Query: Next sequence up: CGGGTGCCCCC
Response: 0.974

----------
# system: p50p50 homodimer (Homo sapiens, UniProt P19838 7-356)
# Sequence (P19838 7-356): as the sequence (P19838 7-356, chain 2 of 2) above
# testName: protein binding microarray; high values mean tight binding
# conditionNotes: dsDNA, one strand shown
metric: binding signal
Units required after the number.

Query: Bench note: what binding signal did AAGTTAGTCCT show?
Response: -1.56 z-score

Query: Next sequence up: AAATATGTCCT
Response: -1.09 z-score

Query: Next sequence up: GAGTACACCCT
Response: -0.892 z-score

Query: Next sequence up: AGGTGACTCCT
Response: -0.518 z-score

Query: Next sequence up: CAGGGAGTCCT
Response: 0.0337 z-score

Query: Next sequence up: AAAGACTCCCT
Response: 0.719 z-score

Query: Next sequence up: CAGAAGATCCT
Response: -2.16 z-score

Query: Next sequence up: CGGGTCGTCCT
Response: -1.36 z-score

Query: Next sequence up: CAGGAGGTCCT
Response: -1.52 z-score

Query: Next sequence up: AAGTGGGTCCC
Response: -0.324 z-score

Query: Next sequence up: GAAGGCATCCT
Response: -1.34 z-score

Query: Next sequence up: CAATACATCCC
Response: -0.836 z-score

Query: Next sequence up: GGGAAGCTCCC
Response: 0.219 z-score

Query: Next sequence up: CAGTAGGTCCC
Response: -0.303 z-score

Query: Next sequence up: GAAGTTATCCC
Response: -0.295 z-score

Query: Next sequence up: GGATTTTCCCC
Response: 1.16 z-score

Query: Next sequence up: GAATTTACCCT
Response: 0.984 z-score

Query: Next sequence up: AAATAACCCCC
Response: 1.39 z-score

Query: Next sequence up: AGGTAATTCCT
Response: 0.62 z-score

Query: Next sequence up: AGGTATTTCCC
Response: 0.816 z-score
